procedure-text: chemical genetic growth profiling, strain panel (AID 1159580);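 also: tested at 20 µM; growth read once vehicle control cultures reached saturation at 30 °C; 1 = growth at the plate median or of vehicle wells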
assay-conditions: S. cerevisiae deletion strains, growth OD, locus YAL040C, strain CLN3, stronger effect = lower value
In all, about 5,500 compounds went through this assay and about 2,000 (36%) were called active. Inconclusive results (about 18%) are left out. This is one part of the list.
We begin with a simple list: items and their reported normalized growth.
Respond using a number only.

CC#CCOC(=O)c1c(C)nc2sc3c(c2c1N)CCC(O)C3 (stereo unspecified) | 1.06
Cc1cccc(C(=O)NCN2CCN(c3ccccc3C#N)CC2)c1 | 0.963
Cc1cccc(C)c1NC(=O)C[N+](C)(C)C | 0.995

## Input Data request, read-out normalized growth, for `CCCC[C@@]1(C2CCCC2)Cc2cc(OCC(=O)O)c(Cl)c(Cl)c2C1=O`
## Output 1

## Input Data request, read-out normalized growth, for `CCCCCCCCCCCCCCCC(=O)NCCO`
## Output 1.02

## Input Data request, read-out normalized growth, for O=[N+]([O-])c1ccc(CSc2ncnc3c2ncn3[C@@H]2O[C@H](CO)[C@H](O)C2O)cc1 (stereo partly specified)
## Output 1.01

## Input Data request, read-out normalized growth, for `C[C@@]1(C2CCCC2)Cc2cc(OCC(=O)O)c(Cl)c(Cl)c2C1=O`
## Output 1

## Input Data request, read-out normalized growth, for `O=S(=O)(O)C1CCNCC1`
## Output 0.981

## Input Data request, read-out normalized growth, for `COc1cc(CNC(=O)CCCCCCC(C)C)ccc1O`
## Output 0.986

## Input Data request, read-out normalized growth, for CC(C)(C)NCC(O)c1ccccc1Cl (stereo unspecified)
## Output 0.966

## Input Data request, read-out normalized growth, for `CNc1ncnc2c1ncn2[C@H]1C[C@H](OP(=O)(O)O)[C@@H](COP(=O)(O)O)O1`
## Output 0.995

* * *

procedure-text: chemical genetic growth profiling, strain panel (AID 1159580)
assay-conditions: S. cerevisiae deletion strains, growth OD, locus YBR231C, strain swc5, stronger effect = lower value
About 2,000 (36%) of roughly 5,500 compounds were called active. Inconclusive results (about 18%) are left out. The list shows a part of the results.
Friendly reminder: normalized growth below 1 is true (1), at or above is false (0).

Field: example entries. Status: answers known.
O=C(O)/C=C/C=C/c1ccccc1 | true (1)
CO[C@H]1/C=C/O[C@@]2(C)Oc3c(C)c(O)c4c(O)c(c5c(nc6cc(C)ccn65)c4c3C2=O)NC(=O)/C(C)=C\C=C\[C@H](C)[C@H](O)[C@@H](C)C(O)[C@@H](C)[C@H](OC(C)=O)[C@@H]1C (stereo partly drawn) | false (0)
O=C(O)c1ccccc1Nc1ccccc1 | true (1)

## Input Answer whether the molecule `O=C(O)c1ccccc1Nc1cccc(C(F)(F)F)c1` has normalized growth strictly less than 1
## Output true (1)

## Input Answer whether the molecule `Nc1ccc(S(=O)(=O)Nc2ccccn2)cc1` has normalized growth strictly less than 1
## Output false (0)

* * *

procedure-text: chemical genetic growth profiling, strain panel (AID 1159580)
assay-conditions: S. cerevisiae deletion strains, growth OD, locus YEL061C, strain CIN8
The campaign covered roughly 5,500 compounds. About 2,000 (36%) were called active. Not shown: some 18% with an inconclusive outcome. Cut-off read from the data, not from the text of the source: active = normalized growth mostly below about 0.91 (no sharp cut-off); inconclusive = no clear call, values can overlap the other calls; inactive = mostly above about 0.92. Some of the results follow.
# valid calls are label 1 = active, label 0 = inactive; nothing else

Field: example entries. Status: answers known.
O=C(NC(=S)NCc1ccncc1)c1ccccc1 | label 0
O=C(NCCSCc1ccco1)Nc1cc(Cl)cc(Cl)c1 | label 0
Nc1ccc(C(=O)NCC(=O)O)cc1 | label 0

## Input Look up the recorded call for `NC(N)=NC(N)=Nc1cc(C(F)(F)F)cc(C(F)(F)F)c1` in this test.
## Output label 0

## Input Look up the recorded call for CC(C)=CCC[C@](C)(O)C1CC=C(C)CC1 (stereo not given in full) in this test.
## Output label 0

## Input Look up the recorded call for C[C@H]1[C@H]2CCC3C4CC=C5C[C@@H](N(C)C)CC[C@]5(C)C4CC[C@@]32CN1C (stereo not given in full) in this test.
## Output label 0

## Input Look up the recorded call for CCC(Cc1c(I)cc(I)c(N)c1I)C(=O)O (stereo not given) in this test.
## Output label 0

## Input Look up the recorded call for `CC(C)c1ccc(NC(=S)NC(=O)c2ccc(C(F)(F)F)cc2)cc1` in this test.
## Output label 0

* * *

procedure-text: chemical genetic growth profiling, strain panel (AID 1159580)
assay-conditions: S. cerevisiae deletion strains, growth OD, locus YDR069C, strain doa4
About 2,000 (36%) of roughly 5,500 compounds were called active. Roughly 18% stayed inconclusive and do not appear here. Rule as the data show it: active = normalized growth mostly below about 0.91 (no sharp cut-off); inconclusive = no clear call, values can overlap the other calls; inactive = mostly above about 0.92. This is one part of the list.
# valid calls are t (active), f (inactive); nothing else

Field: example entries. Status: answers known.
OC[C@@H]1CCCN2CCCC[C@H]12 | f
CO[C@H]1/C=C/O[C@@]2(C)Oc3c(C)c(O)c4c(O)c(c5c(nc6cc(C)ccn65)c4c3C2=O)NC(=O)/C(C)=C\C=C\[C@H](C)[C@H](O)[C@@H](C)C(O)[C@@H](C)[C@H](OC(C)=O)[C@@H]1C (stereo not given in full) | f
CCN(CC)CCOc1ccc(/C(=C(\Cl)c2ccccc2)c2ccccc2)cc1 | t

## Input Look up the recorded call for `CCN(CC)CCOc1ccc2c(c1)C(=O)c1cc(OCCN(CC)CC)ccc1-2` in this test.
## Output f

## Input Look up the recorded call for `Cc1occc(=O)c1O` in this test.
## Output f

* * *

procedure-text: chemical genetic growth profiling, strain panel (AID 1159580);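 also: tested at 20 µM; growth read once vehicle control cultures reached saturation at 30 °C; 1 = growth at the plate median or of vehicle wells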
assay-conditions: S. cerevisiae deletion strains, growth OD, locus YJL095W, strain BCK1 (second series)
About 2,000 (36%) of roughly 5,500 compounds were called active. Not shown: some 18% with an inconclusive outcome. No stated cut-off is given here; in the data, active means normalized growth mostly below about 0.91 (no sharp cut-off); inconclusive means no clear call, values can overlap the other calls; inactive means mostly above about 0.92. The list shows a part of the results.
# valid calls are active, inactive; nothing else

Field: example entries. Status: answers known.
OC[C@@H]1CCCN2CCCC[C@H]12 | inactive
CC1(C)C(=O)C=C[C@@]2(C)C1=C(O)C(=O)[C@]1(C)C2CC[C@@]2(C)[C@H](c3ccoc3)C[C@H]3O[C@]321 (stereo partly drawn) | active

## Input Look up the recorded call for C1CCN2CC3CC(CN4CCCCC34)C2C1 (stereo not drawn) in this test.
## Output inactive

## Input Look up the recorded call for `OC[C@@H](O)[C@@H](O[C@@H]1O[C@H](CO)[C@@H](O)[C@H](O)[C@H]1O)[C@H](O)[C@@H](O)CO` in this test.
## Output inactive

## Input Look up the recorded call for `C1CNCCN1` in this test.
## Output inactive

## Input Look up the recorded call for `O=[N+]([O-])c1ccc(O)c([N+](=O)[O-])c1` in this test.
## Output active

* * *

procedure-text: chemical genetic growth profiling, strain panel (AID 1159580);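 also: tested at 20 µM; growth read once vehicle control cultures reached saturation at 30 °C; 1 = growth at the plate median or of vehicle wells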
assay-conditions: S. cerevisiae deletion strains, growth OD, locus YNL071W, strain lat1, stronger effect = lower value
Among all 5,500 compounds or so, about 2,000 (36%) were called active. Another 18% or so got no clear call; they are omitted. This is one part of the list.
parameter-measured: normalized growth
Respond using a number only.

Consider the reported normalized growth for these compounds:
CCC(Cc1c(I)cc(I)c(N)c1I)C(=O)O (stereo unspecified) | 0.689
Nc1ccc(S(=O)(=O)Nc2ccccn2)cc1 | 0.998
O[N+]1=CC=CCC1=S.On1ccccc1=S.[Zn] | 0.0631

## Input Data request, read-out normalized growth, for CCCC(C)C1(CC)C(=O)N=C(S)NC1=O (stereo unspecified)
## Output 1

## Input Data request, read-out normalized growth, for `CC(=O)Oc1ccc(Cl)c2cccnc12`
## Output 0.0618

## Input Data request, read-out normalized growth, for Nc1ncnc2c1ncn2C1C[C@H](O)[C@@H](CO)O1 (stereo partly specified)
## Output 1.02

## Input Data request, read-out normalized growth, for CCCC(C)C1(CC)C(=O)NC(=O)NC1=O (stereo unspecified)
## Output 1.01

## Input Data request, read-out normalized growth, for CC(=O)O[C@H]1C[C@@H](OC(C)=O)C(C)(C)C2C[C@@H](OC(C)=O)[C@@]3(C)C4=CC(=O)O[C@@H](c5ccoc5)[C@]4(C)CCC3[C@]21C (stereo partly specified)
## Output 1.01

## Input Data request, read-out normalized growth, for `Oc1c(I)cc(I)c2cccnc12`
## Output 0.236

## Input Data request, read-out normalized growth, for `Nc1ncnc2c1ncn2[C@@H]1O[C@H](CO)[C@@H](O)[C@H]1O`
## Output 1

## Input Data request, read-out normalized growth, for `O=C1C=CC2=C3c4cc(O)c(O)cc4C[C@@]3(O)COC2=C1`
## Output 0.982

* * *

procedure-text: chemical genetic growth profiling, strain panel (AID 1159580);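 also: tested at 20 µM; growth read once vehicle control cultures reached saturation at 30 °C; 1 = growth at the plate median or of vehicle wells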
assay-conditions: S. cerevisiae deletion strains, growth OD, locus YDL185W, strain tfp1, stronger effect = lower value
In all, about 5,500 compounds went through this assay and about 2,000 (36%) were called active. Inconclusive results (about 18%) are left out. Some of the results follow.
parameter-measured: normalized growth
Respond using a number only.

Consider the reported normalized growth for these compounds:
O=C(CCCCCCCCCCCCC1CCCC1)Nc1ccc(S(=O)(=O)c2ccc(NC(=O)CCCCCCCCCCCCC3CCCC3)cc2)cc1 | 1.01
c1ccc2c(c1)cc1ccc3cccc4ccc2c1c34 | 0.995
Cc1ccc2cc3c(ccc4ccccc43)c3c2c1CC3 | 0.99
Cc1occc(=O)c1O | 1.01
CC(C)N(C(=O)SCC(Cl)=C(Cl)Cl)C(C)C | 0.999

Now examine the next entry.
## Input Data request, read-out normalized growth, for `O=C(O[C@@H]1Cc2c(O)cc(O)cc2O[C@@H]1c1cc(O)c(O)c(O)c1-c1c([C@H]2Oc3cc(O)cc(O)c3C[C@H]2O)cc(O)c(O)c1O)c1cc(O)c(O)c(O)c1`
## Output 0.928
